target: PC-BSA; assay: ELISA (DELFIA TRF), PC-BSA coated, titrated IgG1
Sequence (P02769 25-607 limits assumed, form in doubt): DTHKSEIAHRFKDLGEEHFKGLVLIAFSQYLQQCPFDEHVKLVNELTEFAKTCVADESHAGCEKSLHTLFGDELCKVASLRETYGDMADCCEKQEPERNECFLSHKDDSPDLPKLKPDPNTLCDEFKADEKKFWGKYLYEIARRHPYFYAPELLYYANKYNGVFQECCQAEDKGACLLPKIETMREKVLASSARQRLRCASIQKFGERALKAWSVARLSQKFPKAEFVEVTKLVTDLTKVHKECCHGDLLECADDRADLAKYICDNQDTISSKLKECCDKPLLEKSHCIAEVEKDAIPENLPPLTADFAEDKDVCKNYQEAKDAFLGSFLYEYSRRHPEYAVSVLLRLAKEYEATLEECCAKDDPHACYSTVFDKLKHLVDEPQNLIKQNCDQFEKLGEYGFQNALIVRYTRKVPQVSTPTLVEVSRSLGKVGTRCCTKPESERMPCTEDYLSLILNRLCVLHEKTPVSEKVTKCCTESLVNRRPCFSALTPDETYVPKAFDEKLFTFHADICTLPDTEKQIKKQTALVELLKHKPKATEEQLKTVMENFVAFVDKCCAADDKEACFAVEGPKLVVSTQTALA
VALUE_TYPE: EC50 (nM)
Lab book: enter the figure in nM, no units written.

Take a look at these entries with their results.
BINDER: PcOxP_DB01_F04 (human IgG1) (antibody, V domains shown) VH: EVQLLESGGGLVQPGGSLRLSCAASGFTFSSYYMEWVRQAPGKGLEWVAASRNKYNDYTTEYADSVKGRFTISRDNSKNTLYLQMNSLRAEDTAVYYCARDYYGSSYWYFDVWGQGTLVTVSS VL: DIQMTQSPSSLSASVGDRVTITCTASESLYSSKHKVHYLAWYQQKPGKAPKLLIYGAVNRYIGVPSRFSGSGSGTDFTLTISSLQPEDFATYYCAQFYRYPLTFGGGTKVEIK
VALUE_TYPE: EC50
REPORTED_MEASUREMENT: 0.344
//
BINDER: PcOxP_DB03_C10 (human IgG1) (antibody, V domains shown) VH: EVQLLESGGGLVQPGGSLRLSCAASGFTFSSYYMEWVRQAPGKGLEWVAASRNKANEYTTEYADSVKGRFTISRDNSKNTLYLQMNSLRAEDTAVYYCARDYYGSSYWYFDVWGQGTLVTVSS VL: DIVMTQSPDSLAVSLGERATINCTASESLYSSKHKVHYLAWYQQKPGQPPKLLIYGAGNRYIGVPDRFSGSGSGTDFTLTISSLQAEDVAVYYCAQFYSYPLTFGGGTKVEIK
VALUE_TYPE: EC50
REPORTED_MEASUREMENT: 0.285

Which measured EC50 value corresponds to PcOxP_DB01_H04 (human IgG1) (antibody, V domains shown) VH: EVQLLESGGGLVQPGGSLRLSCAASGFAFSDFYMEWVRQAPGKGLEWVAASRNKANDYTTEYADSVKGRFTISRDNSKNTLYLQMNSLRAEDTAVYYCARDYYGSHYWYFDVWGQGTLVTVSS VL: DIQMTQSPSSLSASVGDRVTITCTASESLYSSKHKVHYLAWYQQKPGKAPKLLIYGASNLQSGVPSRFSGSGSGTDFTLTISSLQPEDFATYYCAQFYYYPLTFGGGTKVEIK ? 0.456
